# Test system: Mycobacterium tuberculosis
# Assay Details: Antimycobacterial activity against Mycobacterium tuberculosis H37Rv after 7 days by REMA
# Assay type: functional
# Run Parameters: 168 h
Readout Label: MIC (µM)

CC1(C(=O)NCc2ccccc2)COCC(=O)N1/N=C/c1ccc([N+](=O)[O-])o1 (centres undefined)
65
CC1(C(=O)NC2CCCCC2)CCC(=O)N1/N=C/c1ccc([N+](=O)[O-])o1 (centres undefined)
70
CC1(C(=O)NC2CCCCC2)CN(S(C)(=O)=O)CC(=O)N1/N=C/c1ccc([N+](=O)[O-])o1 (centres undefined)
55
CC1(C(=O)NC2CCCCC2)CCCC(=O)N1/N=C/c1ccc([N+](=O)[O-])o1 (centres undefined)
33
CC1(C(=O)NC2CCCCC2)CSCC(=O)N1/N=C/c1ccc([N+](=O)[O-])o1 (centres undefined)
32
CC1(C(=O)NC2CCCCC2)COCC(=O)N1/N=C/c1ccc([N+](=O)[O-])o1 (centres undefined)
66
CC1(C(=O)NC2CCCCC2)CN(S(=O)(=O)c2ccccc2[N+](=O)[O-])CC(=O)N1/N=C/c1ccc([N+](=O)[O-])o1 (centres undefined)
22
